Values were extracted from PubChem BioAssay (EPA / NIEHS).

Read-out: Interleukin 6 (IL6), IL6 (gene 3569)
experiment: LTEA_HepaRG_IL6: Life Technologies and Expression Analysis (LTEA) Assay for Interleukin 6 (IL6) using HepaRG (AID 2283509)
measurement conditions: mRNA level, 48 h; actives raise or lower the signal
Activity calls are given as the source filed them. How the source made its calls: active means hit-call score of the fitted dose curve at least 0.9, where 1 is the maximum; inactive means score below 0.9.
Hi! Could you answer with just one of these? active, inactive

GET /call?item= CN(C)c1ccc(N=NS(=O)(=O)O)cc1 returns the recorded outcome of this test.
inactive

What do you have for Cn1c(=O)c2c(ncn2C)n(C)c1=O ?
inactive

What do you have for CC(=O)OCCC(C)C ?
inactive

What do you have for O=C1CCCCCN1 ?
inactive

What do you have for CCCCC(CC)COC(=O)CCCCCCCCC(=O)OCC(CC)CCCC (stereo not drawn) ?
inactive

What do you have for Fc1ccccc1[C@@H](F)COC1CCC(Nc2ncnc3[nH]ncc23)CC1 (stereo partly drawn) ?
active

What do you have for CNS(=O)(=O)c1cc(C(=O)N2CCC(CCN3C4CCC3CC(n3c(C)nc5ccccc53)C4)(c3cccc(F)c3)CC2)c(Cl)cc1F (stereo not drawn) ?
inactive

What do you have for CC(=O)OC[C@H]1O[C@@](COC(C)=O)(O[C@H]2O[C@H](COC(C)=O)[C@@H](OC(C)=O)[C@H](OC(C)=O)[C@H]2OC(C)=O)[C@@H](OC(C)=O)[C@@H]1OC(C)=O ?
inactive

What do you have for COCCOCCOCCOC ?
inactive

What do you have for O=C(O)CCN(C1(C(=O)NO)CCCC1)S(=O)(=O)c1ccc(Oc2ccc(F)cc2)cc1 ?
inactive

What do you have for Nc1ccc(Nc2ccccc2)cc1 ?
inactive

What do you have for C=CC(=C)CCC=C(C)C ?
inactive

What do you have for COc1ccc(-n2nc(C(F)F)cc2-c2ccc(S(C)=O)cc2)cc1 (stereo not drawn) ?
inactive

What do you have for COc1ccc2sc(C(=O)Nc3nnn[nH]3)c(OC(C)C)c2c1 ?
inactive

What do you have for O=C(O)c1cccc(Oc2ccccc2)c1 ?
inactive

What do you have for Cc1c(-c2cccnc2)c2ccccc2n1CCCCC(=O)O ?
inactive

What do you have for CCCCC(CC)COC(=O)c1ccc(C(=O)OCC(CC)CCCC)cc1 (stereo not drawn) ?
inactive

What do you have for O=C(NS(=O)(=O)/C=C/c1ccccc1)c1ccc(F)cc1Cl ?
inactive

What do you have for CCCCCCCCO ?
inactive

What do you have for COCCOc1cc2cc(C(=O)NC3CCN(C(C)C)CC3)n(CC(=O)Nc3ccc(Cl)cn3)c2cn1 ?
inactive

What do you have for CCCCCCCCCCCCc1ccccc1 ?
inactive

What do you have for CCOCCO ?
inactive

What do you have for CCC(C)(C)C(=O)O[C@H]1C[C@@H](C)C=C2C=C[C@H](C)[C@H](CC[C@@H]3C[C@@H](O)CC(=O)O3)[C@H]21 ?
inactive

What do you have for CCOCCOCCOCCO ?
inactive

What do you have for CCOC(=O)CC(CC(=O)OCC)(OC(C)=O)C(=O)OCC ?
inactive

What do you have for O=C(O)c1cccc(N(Cc2cccnc2)c2ccc(OC(F)F)c(OC(F)F)c2)c1 ?
inactive

What do you have for CCOc1cccc(-n2cc(C(=O)N3CCN(c4cc(C(=O)O)c5ccccc5c4)CC3)nc2-c2ccc(C)cc2)c1 ?
active

What do you have for CC(C)=CCCC(C)CCO (stereo not drawn) ?
inactive

What do you have for CC1=CC(=O)CC(C)(C)C1 ?
inactive

What do you have for CCc1cc(SCc2sc(-c3ccc(C(F)(F)F)cc3)nc2CN2CCN(c3ccc(OC)cc3)CC2)ccc1OCC(=O)O ?
active

What do you have for CC(C)=CCC/C(C)=C/CO ?
inactive

What do you have for C=CCCCCCCCCC(=O)O ?
inactive

What do you have for CC/C(=C\C(=N/O)C(N)=O)C(C)[N+](=O)[O-] (stereo not drawn) ?
inactive

What do you have for O=C1OC(=O)C2C3C=CC(C3)C12 (stereo not drawn) ?
inactive

What do you have for Cc1ccc(S(=O)(=O)O)cc1C ?
inactive

What do you have for CCCC(=O)OCC ?
inactive

What do you have for Cc1ccc(N)cc1O ?
inactive

What do you have for O=C1CCC(N2C(=O)c3ccccc3C2=O)C(=O)N1 (stereo not drawn) ?
inactive

What do you have for O=c1n(CC2CO2)c(=O)n(CC2CO2)c(=O)n1CC1CO1 (stereo not drawn) ?
active

What do you have for CC[C@H]1CC[C@H](NCc2cc3c(cc2OC)[C@H]2C[C@H]2C(=O)N3C)[C@H](c2ccccc2)N1 ?
inactive

What do you have for Clc1nc(Cl)c(Cl)c(Cl)c1Cl ?
inactive

What do you have for CC(C)CC(C)(O)C#CC(C)(O)CC(C)C (stereo not drawn) ?
inactive

What do you have for O=C(CCCCCCCCc1cccnc1)N1CCC(C=C(c2ccccc2)c2ccccc2)CC1 ?
active

----------
Read-out: Alkaline Phosphatase, Placental (ALPP) gene, ALPP (gene 250)
experiment: LTEA_HepaRG_ALPP: Life Technologies and Expression Analysis (LTEA) Assay for Alkaline Phosphatase, Placental (ALPP) gene using HepaRG (AID 2283468)
measurement conditions: mRNA level, 48 h; actives raise or lower the signal
Activity calls are given as the source filed them. The calls were made as follows: active = hit-call score of the fitted dose curve at least 0.9, where 1 is the maximum; inactive = score below 0.9.
Hi! Could you answer with just one of these? label 1 = active, label 0 = inactive

GET /call?item= Cc1[nH]cnc1C[C@H]1CCc2c(C)c3ccccc3n2C1=O returns the recorded outcome of this test.
label 0

What do you have for CC/C(=C\C(=N/O)C(N)=O)C(C)[N+](=O)[O-] (stereo unspecified) ?
label 0

What do you have for C[C@](N)(Cc1ccc(O)c(O)c1)C(=O)O ?
label 0

What do you have for CC(C)CC(C)(O)C#CC(C)(O)CC(C)C (stereo unspecified) ?
label 0

What do you have for On1ccccc1=S ?
label 0

What do you have for CC(=O)OC[C@H]1O[C@@](COC(C)=O)(O[C@H]2O[C@H](COC(C)=O)[C@@H](OC(C)=O)[C@H](OC(C)=O)[C@H]2OC(C)=O)[C@@H](OC(C)=O)[C@@H]1OC(C)=O ?
label 0

What do you have for CCOCCOCCOCCO ?
label 0

What do you have for CC[C@H](C)C(=O)O[C@H]1C[C@@H](C)C=C2C=C[C@H](C)[C@H](CC[C@@H]3C[C@@H](O)CC(=O)O3)[C@H]21 ?
label 0

What do you have for CCN(C(=O)c1cc(C)cc(OC[C@H](C)Nc2ccncc2)c1)C(C)C ?
label 1

What do you have for CC(C)CCO ?
label 0

What do you have for COC(=O)CC(=O)OC ?
label 0

----------
target or system: human Peroxisome Proliferator-activated Receptor delta (PPARd), PPARD (gene 5467)
experiment: ATG_PPARd_TRANS: Attagene TRANS-FACTORIAL HepG2 Assay for human Peroxisome Proliferator-activated Receptor delta (PPARd) (AID 2283002)
Method: ATG_TRANS is a cell-based, multiplexed-readout assay that uses HepG2, a human liver cell line, with measurements taken at 24 hours after chemical dosing in a 24-well plate.ATG_PPARd_TRANS is one of 30 assay component(s) measured or calculated from the ATG_TRANS assay. […] This assay endpoint, ATG_PPARd_TRANS, was analyzed in the positive analysis fitting direction relative to DMSO as the negative control and baseline of activity. […]
Records with an inconclusive call do not appear. Activity calls are given as the source filed them. How the source made its calls: active means hit-call score of the fitted dose curve at least 0.9, where 1 is the maximum; inconclusive means response in the unintended direction; inactive means score below 0.9.
Hi! Could you answer with just one of these? true (1) (active), false (0) (inactive)

GET /call?item= O=C1OC(=O)C2C3C=CC(C3)C12 (stereo not given) returns the recorded outcome of this test.
false (0)

What do you have for CC(C)c1cccc(C(C)C)c1N1C(=O)c2ccc(O)cc2C1=O ?
false (0)

What do you have for O=C1CCC(N2C(=O)c3ccccc3C2=O)C(=O)N1 (stereo not given) ?
false (0)

What do you have for CC[C@H]1CC[C@H](NCc2cc3c(cc2OC)[C@H]2C[C@H]2C(=O)N3C)[C@H](c2ccccc2)N1 ?
false (0)

What do you have for CN(C)c1ccc(Cc2ccc(N(C)C)cc2)cc1 ?
true (1)

----------
experiment: ATG_M_32_CIS: Attagene CIS-FACTORIAL HepG2 Assay for M32 Transcription Factor (Internal Marker) (AID 2282949);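 further: background control marker of the multiplexed CIS panel rather than a real target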
measurement conditions: HepG2 Attagene cis-factorial M32 reporter, mRNA; actives raise or lower the signal
The source made the active and inactive calls. Rule for the calls: active = hit-call score of the fitted dose curve at least 0.9, where 1 is the maximum; inactive = score below 0.9.
endpoint name: outcome

A selection of reference data follows.
# compound, outcome
data = [
    ("COCCOCCOCCOC", "inactive"),
    ("CC(C)=CCC/C(C)=C/CO", "inactive"),
    ("CCCCC(CC)COC(=O)c1ccc(C(=O)OCC(CC)CCCC)cc1 (stereo unspecified)", "inactive"),
    ("COc1ccc2sc(C(=O)Nc3nnn[nH]3)c(OC(C)C)c2c1", "inactive"),
    ("On1ccccc1=S", "inactive"),
    ("CC1=CC(=O)CC(C)(C)C1", "inactive"),
    ("CCC(C)(C)C(=O)O[C@H]1C[C@@H](C)C=C2C=C[C@H](C)[C@H](CC[C@@H]3C[C@@H](O)CC(=O)O3)[C@H]21", "inactive"),
    ("CC[C@H]1CC[C@H](NCc2cc3c(cc2OC)[C@H]2C[C@H]2C(=O)N3C)[C@H](c2ccccc2)N1", "inactive"),
]

Entry CCCN(C1CCN(C(=O)C2CCNCC2)CC1)[C@@H]1CCc2ccc(OC)cc2C1 : reported outcome = ?
inactive

What do you have for CC1(C)C(=O)N(Br)C(=O)N1Br ?
inactive

What do you have for O=C(CCCCCCCCc1cccnc1)N1CCC(C=C(c2ccccc2)c2ccccc2)CC1 ?
inactive
